// provenance: the RNAGym collection of RNA variant scans (doi:10.1073/pnas.2313332121)

B1: TPR t1 (parent)
chain: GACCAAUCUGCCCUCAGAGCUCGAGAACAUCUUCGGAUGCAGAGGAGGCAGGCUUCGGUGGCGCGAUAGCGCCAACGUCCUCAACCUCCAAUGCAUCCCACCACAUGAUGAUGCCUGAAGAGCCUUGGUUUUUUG

variants of: B1; assay: polymerase ribozyme fitness, log enrichment relative to wild type (log ratio); higher = more active; in vitro selection for triplet polymerase activity
So basically: polymerase ribozyme fitness (log ratio) at -1 or higher? That is met. Lower than -1? That is not met.

# input Say whether G71U A105C shows polymerase ribozyme fitness (log ratio) of -1 or more.
# output not met

# input # check: polymerase ribozyme fitness (log ratio) of G61A G127U is greater than or equal to -1
# output not met

# input Determine whether measured polymerase ribozyme fitness (log ratio) meets or exceeds -1 for C11G C13A C82G A84G
# output not met

# input Record C20U A43G G63A ; criterion: polymerase ribozyme fitness (log ratio) no lower than -1. Met?
# output not met

# input Dear colleague, could you confirm whether C4U G52C has polymerase ribozyme fitness (log ratio) at or above -1?
# output met

# input polymerase ribozyme fitness (log ratio) >= -1 for U9G C99U ?
# output not met

# input Confirm if polymerase ribozyme fitness (log ratio) reported for the variant C28U C124U is -1 or above.
# output met

# input Does A24G G63U G113U have a reported polymerase ribozyme fitness (log ratio) of at least -1?
# output not met

# input Could you verify whether the entry G71C A90G shows polymerase ribozyme fitness (log ratio) of no less than -1?
# output met

# input Reported polymerase ribozyme fitness (log ratio) at or above -1? G19A A43U C49U U59A C124U
# output not met

# input Threshold query (polymerase ribozyme fitness (log ratio) >= -1) on A18U A90C G122A
# output not met

# input I'd appreciate it if you could say whether C56U C73A has polymerase ribozyme fitness (log ratio) at least equal to -1.
# output met

# input Does the variant C3G U9G A43G G61A C114A U131A have recorded polymerase ribozyme fitness (log ratio) that is -1 or more?
# output not met

# input Check if polymerase ribozyme fitness (log ratio) >= -1 (inclusive). Item: A43U A46U C97U
# output not met

# input Answer whether polymerase ribozyme fitness (log ratio) of G69U C104A U126A is greater than or equal to -1.
# output not met

# input I'd appreciate it if you could say whether C4U C11U C104U C115A has polymerase ribozyme fitness (log ratio) at least equal to -1.
# output not met

# input Exam item: decide whether the reported polymerase ribozyme fitness (log ratio) for C70U C82A C85U is at least -1.
# output not met

# input Exam item: decide whether the reported polymerase ribozyme fitness (log ratio) for A6U U7C C70A C76G is at least -1.
# output not met

# input Record C34A C123U ; criterion: polymerase ribozyme fitness (log ratio) no lower than -1. Met?
# output not met

# input Hi team, for C20A U32G G35C G93A G113A U125A , is the recorded polymerase ribozyme fitness (log ratio) at or above -1?
# output not met

# input API: above_or_equal(metric=polymerase ribozyme fitness (log ratio), cutoff=-1) for item A50U C123G U131G
# output met

# input Decide: polymerase ribozyme fitness (log ratio) of A2U U7A A46C G48A C82A G127C >= -1?
# output not met
